subjectOfTest: T1, Bcl-w (human, UniProt Q92843 1-193)
T1 construct: Bcl-w, human recombinant; source: bought: R&D Systems
T1 sequence (looked up): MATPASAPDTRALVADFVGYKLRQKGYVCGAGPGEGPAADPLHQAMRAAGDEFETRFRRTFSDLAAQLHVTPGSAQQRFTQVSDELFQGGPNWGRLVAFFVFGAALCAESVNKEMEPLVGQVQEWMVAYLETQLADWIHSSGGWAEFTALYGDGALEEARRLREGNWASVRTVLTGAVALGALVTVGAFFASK
assayNotes: SPR; Biacore S200; Bcl-2 family proteins immobilised on CM5 (amine coupling or His-Capture Kit); peptides and flag-tagged proteins as analytes, single-cycle kinetics, HBS-EP, 25 °C; 1:1 Langmuir model; absence of binding probed at 100 nM and 3 µM
conditionLabel: both partners purified
attributeMeasured: pKd
pKd field: float, defined as -log10 of concentration (mol/L).

Worked examples, 2 binders total:
binder	pKd
DMRPEIWIIQELRRIGDEFNAYYAR (also called Bim (A149A) (as printed in the methods); source: synthetic peptide (ABclonal, >95% purity)) [Bim (A149I) peptide]	7.64
ESQEDIIRNIARHLAQVGDSMDRSI (Bid, BH3-only motif, residues 77-101; source: synthetic peptide (ABclonal, >95% purity)) [Bid BH3 peptide (25-mer, residues 77-101)]	7.62

Req: Recorded pKd for ESQEDIIRNIIRHLAQVGDSMDRSI (source: synthetic peptide (ABclonal, >95% purity)) [Bid (A87I) peptide] , please?
Resp: 7.19
